Entry source: ChEMBL document CHEMBL3867455

experiment: Cytotoxicity against African green monkey Vero cells assessed cell viability at 1.3 uM relative to control
Assay type: toxicity, cell-based
setupConditions: chlorocebus sabaeus, read-out: Activity
observedProperty: viability at 1.3 µM
Write the figure, then the unit, nothing else.

Record request: viability at 1.3 µM value, item "COc1ccc(-c2csc(NC(=O)/C=C/c3cccs3)n2)c(OC)c1" 106%

----------
experiment: Cytotoxicity against African green monkey Vero cells assessed cell viability at 2.5 uM relative to control
Type: toxicity, cell-based
setupConditions: chlorocebus sabaeus, read-out: Activity
observedProperty: viability at 2.5 µM (%)
// units = %; emit number, no label

Give the measured viability at 2.5 µM of "COc1ccc(-c2csc(NC(=O)/C=C/c3cccs3)n2)c(OC)c1" . 106
